This collection of values is drawn from patent US10399932B2.

- Target entity: human IDO1 (Homo sapiens)
- Sequence (P14902 whole entry): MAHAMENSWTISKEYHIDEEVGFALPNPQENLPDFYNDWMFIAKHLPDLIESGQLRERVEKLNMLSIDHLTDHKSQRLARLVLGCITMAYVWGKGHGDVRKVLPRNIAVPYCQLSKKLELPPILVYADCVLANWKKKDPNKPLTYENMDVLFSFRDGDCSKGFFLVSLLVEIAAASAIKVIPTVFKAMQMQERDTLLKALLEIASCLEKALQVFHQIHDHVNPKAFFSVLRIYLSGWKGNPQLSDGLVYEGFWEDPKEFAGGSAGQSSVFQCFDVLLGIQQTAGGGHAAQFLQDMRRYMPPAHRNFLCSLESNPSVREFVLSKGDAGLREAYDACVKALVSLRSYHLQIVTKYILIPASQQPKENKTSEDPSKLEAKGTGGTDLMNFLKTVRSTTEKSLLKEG
- Test protocol: Assessment of human IDO-1 inhibitory activity in HEK cells (human IDO1/HEK293 cells, Ehrlich reagent, absorbance at 490 nm)
- Type: cell-based
- Design: expressed in transfected cells
- Condition set: In Vitro Potency in the HEK Human IDO-1 Cellular Assay
pIC50: −log10 of the molar value.

[
  {
    "Molecule": "CCC(CC(=O)O)c1cc(F)c(N(CC(C)C)CC(C)C)c(Nc2ccc3nc(C)sc3c2)c1 (single isomer, unassigned)",
    "pIC50": "< 7.30"
  },
  {
    "Molecule": "CCC(CC(=O)O)c1ccc(N2C[C@@H](C)O[C@@H](C)C2)c(Nc2ccc3nc(C)sc3c2)c1 (single isomer, unassigned)",
    "pIC50": "< 7.30"
  },
  {
    "Molecule": "COCC(CC(=O)O)c1cc(F)c(N(CC(C)C)C2CCCCC2)c(NC(=O)Nc2ccc(Cl)cc2)c1 (single isomer, unassigned)",
    "pIC50": "> 8.30"
  },
  {
    "Molecule": "CCC(CC(=O)O)c1cc(F)c(N(CC(C)C)CC(C)C)c(NC(=O)c2ccc(Cl)cc2)c1 (single isomer, unassigned)",
    "pIC50": "< 7.30"
  },
  {
    "Molecule": "CCC(CC(=O)O)c1ccc(N2CCC[C@H]2C(C)(C)O)c(Nc2cnc(OC)nc2)c1 (single isomer, unassigned)",
    "pIC50": "< 7.30"
  },
  {
    "Molecule": "CCc1ccc(Nc2cc(C(C)CC(=O)O)ccc2N2C[C@@H](C)O[C@@H](C)C2)cc1 (single isomer, unassigned)",
    "pIC50": "< 7.30"
  },
  {
    "Molecule": "CCC(CC(=O)O)c1ccc(N2C[C@@H](C)O[C@@H](C)C2)c(Nc2ccc(F)cc2)c1 (single isomer, unassigned)",
    "pIC50": "< 7.30"
  },
  {
    "Molecule": "CCc1ccc(Nc2cc(C(CC)CC(=O)O)cc(F)c2N(CC(C)C)CC(C)C)cc1 (single isomer, unassigned)",
    "pIC50": "> 7.30"
  },
  {
    "Molecule": "CCC(CC(=O)O)c1ccc(N(CC2CC2)C2CCOCC2)c(NC(=O)Nc2cc(C)on2)c1 (single isomer, unassigned)",
    "pIC50": "< 7.30"
  },
  {
    "Molecule": "CCOc1ccc(NC(=O)Nc2cc(C(CC)CC(=O)O)ccc2N2CCC[C@@H]2C(C)(C)O)cc1 (single isomer, unassigned)",
    "pIC50": "< 7.30"
  },
  {
    "Molecule": "CC(CC(=O)O)c1ccc(N(CC(C)(C)O)C2CCCCC2)c(Nc2ccc(Cl)c(OCC(F)(F)F)c2)c1 (single isomer, unassigned)",
    "pIC50": "< 7.30"
  },
  {
    "Molecule": "CCC(CC(=O)O)c1cc(F)c(N(CC(C)C)CC(C)C)c(Nc2ccc(OCC3CC3)cc2)c1 (single isomer, unassigned)",
    "pIC50": "> 7.30"
  }
]

====

Attribute: IC50
- Target entity: human IDO1 (Homo sapiens)
- Test protocol: Assessment of human IDO-1 inhibitory activity in Hela cells (Interferon-gamma activated, Ehrlich reagent, absorbance at 490 nm)
- Assay type: cell-based
- Parameters: endogenous in cells; host or cells: HeLa cells stimulated with interferon-gamma
- Condition set: 18 hours
Endpoint label: IC50

[
  {
    "Compound": "CCc1ccc(Nc2cc(C(COC)CC(=O)O)cc(F)c2N(CC(C)C)CC(C)C)cc1 (single isomer, unassigned) [Example 926]",
    "Target entity": "human IDO1 (Homo sapiens)",
    "Endpoint label": "IC50",
    "Value": "< 50 nM"
  },
  {
    "Compound": "COCCN(c1ccc(C(COC)CC(=O)O)cc1Nc1ccc(Cl)cc1)C1CCOCC1 (single isomer, unassigned) [Example 256 Enantiomer 2]",
    "Target entity": "human IDO1 (Homo sapiens)",
    "Endpoint label": "IC50",
    "Value": "< 5 nM"
  },
  {
    "Compound": "COCCN(c1ccc(C(COC)CC(=O)O)cc1NC(=O)Nc1ccc(Cl)cc1F)C1CCOCC1 (single isomer, unassigned) [Example 263]",
    "Target entity": "human IDO1 (Homo sapiens)",
    "Endpoint label": "IC50",
    "Value": "> 50 nM"
  },
  {
    "Compound": "CCOc1ncc(Nc2cc(C(CC)CC(=O)O)ccc2N2CCNCC2)cn1 (single isomer, unassigned) [Example 673]",
    "Target entity": "human IDO1 (Homo sapiens)",
    "Endpoint label": "IC50",
    "Value": "> 50 nM"
  },
  {
    "Compound": "CCN(c1ccc(C(CC(=O)O)C2CC2)cc1Nc1cnc(OC)nc1)C1CCOCC1 (single isomer, unassigned) [Example 38]",
    "Target entity": "human IDO1 (Homo sapiens)",
    "Endpoint label": "IC50",
    "Value": "< 50 nM"
  },
  {
    "Compound": "CCC(CC(=O)O)c1ccc(N2CC(O)(c3ccc(F)cc3)C2)c(Nc2ccc(C#N)cc2)c1 (single isomer, unassigned) [Example 1255]",
    "Target entity": "human IDO1 (Homo sapiens)",
    "Endpoint label": "IC50",
    "Value": "< 50 nM"
  },
  {
    "Compound": "CCOc1ncc(Nc2cc(C(CC(=O)O)C3CC3)ccc2N2C[C@@H](C)O[C@@H](C)C2)cn1 (some centres unmarked) [Example 250]",
    "Target entity": "human IDO1 (Homo sapiens)",
    "Endpoint label": "IC50",
    "Value": "> 50 nM"
  },
  {
    "Compound": "COCC(CC(=O)O)c1ccc(N(C)C2CCOCC2)c(Nc2ccc(C#N)cc2F)c1 (single isomer, unassigned) [Example 883]",
    "Target entity": "human IDO1 (Homo sapiens)",
    "Endpoint label": "IC50",
    "Value": "< 50 nM"
  },
  {
    "Compound": "CCN(c1ccc([C@H](COC)CC(=O)O)cc1Nc1ccc(C)cc1)C1CCOCC1 (single isomer, unassigned) [Example 410]",
    "Target entity": "human IDO1 (Homo sapiens)",
    "Endpoint label": "IC50",
    "Value": "< 50 nM"
  },
  {
    "Compound": "CCN(c1cc(F)c([C@@H](COC)CC(=O)O)cc1Nc1ccc(Cl)cc1)C1CCOCC1 (stereo in doubt) [Example 851]",
    "Target entity": "human IDO1 (Homo sapiens)",
    "Endpoint label": "IC50",
    "Value": "< 5 nM"
  },
  {
    "Compound": "CCOc1ncc(Nc2cc([C@H](COC)CC(=O)O)ccc2N2CCOCC2CC)cn1 (single isomer, unassigned) [Example 1307]",
    "Target entity": "human IDO1 (Homo sapiens)",
    "Endpoint label": "IC50",
    "Value": "> 50 nM"
  },
  {
    "Compound": "CC(CC(=O)O)c1ccc(N(CC(C)(C)O)C2CCCCC2)c(Nc2ccc(Cl)cc2)c1 (single isomer, unassigned) [Example 48 Enantiomer 2]",
    "Target entity": "human IDO1 (Homo sapiens)",
    "Endpoint label": "IC50",
    "Value": "< 5 nM"
  },
  {
    "Compound": "CC[C@H](CC(=O)O)c1ccc(N(CC)C2CCOCC2)c(Nc2ccc(C#N)cn2)c1 (single isomer, unassigned) [Example 504]",
    "Target entity": "human IDO1 (Homo sapiens)",
    "Endpoint label": "IC50",
    "Value": "< 5 nM"
  },
  {
    "Compound": "CCN(c1ccc([C@H](COC)CC(=O)O)cc1Nc1ccc(Cl)cc1)C1CCOCC1 (single isomer, unassigned) [Example 413]",
    "Target entity": "human IDO1 (Homo sapiens)",
    "Endpoint label": "IC50",
    "Value": "< 5 nM"
  },
  {
    "Compound": "COCC(CC(=O)O)c1cc(F)c(N(CC(C)C)CC(C)C)c(Nc2ccc(Cl)cc2)c1 (single isomer, unassigned) [Example 921]",
    "Target entity": "human IDO1 (Homo sapiens)",
    "Endpoint label": "IC50",
    "Value": "< 5 nM"
  },
  {
    "Compound": "CCC1COCCN1c1ccc([C@@H](COC)CC(=O)O)cc1Nc1cnc(OC)nc1 (single isomer, unassigned) [Example 1298]",
    "Target entity": "human IDO1 (Homo sapiens)",
    "Endpoint label": "IC50",
    "Value": "> 50 nM"
  },
  {
    "Compound": "CCC(CC(=O)O)c1ccc(N(CC)C2CCCOC2)c(Nc2ccc(C#N)cc2)c1 (single isomer, unassigned) [Example 67]",
    "Target entity": "human IDO1 (Homo sapiens)",
    "Endpoint label": "IC50",
    "Value": "< 5 nM"
  },
  {
    "Compound": "CC[C@@H](CC(=O)O)c1ccc(N(CC)C2CCOCC2)c(Nc2ccc(Cl)cn2)c1 (single isomer, unassigned) [Example 460]",
    "Target entity": "human IDO1 (Homo sapiens)",
    "Endpoint label": "IC50",
    "Value": "< 5 nM"
  },
  {
    "Compound": "CCC1COCCN1c1ccc([C@H](COC)CC(=O)O)cc1Nc1ccc(F)cn1 (single isomer, unassigned) [Example 1310]",
    "Target entity": "human IDO1 (Homo sapiens)",
    "Endpoint label": "IC50",
    "Value": "> 50 nM"
  },
  {
    "Compound": "CCC1COCCN1c1ccc([C@@H](COC)CC(=O)O)cc1Nc1ccc(C#N)cn1 (single isomer, unassigned) [Example 1297]",
    "Target entity": "human IDO1 (Homo sapiens)",
    "Endpoint label": "IC50",
    "Value": "> 50 nM"
  },
  {
    "Compound": "CCC(CC(=O)O)c1ccc(N(CCOC)C2CCOCC2)c(Nc2ccc(C#N)cc2)c1 (single isomer, unassigned) [Example 1261]",
    "Target entity": "human IDO1 (Homo sapiens)",
    "Endpoint label": "IC50",
    "Value": "< 5 nM"
  },
  {
    "Compound": "CCN(c1ccc([C@H](COC)CC(=O)O)cc1Nc1ncc(F)cc1F)C1CCOCC1 (single isomer, unassigned) [Example 395]",
    "Target entity": "human IDO1 (Homo sapiens)",
    "Endpoint label": "IC50",
    "Value": "> 50 nM"
  },
  {
    "Compound": "CCOc1ncc(Nc2cc(C(CC)CC(=O)O)ccc2N(CC)C2CCOC2)cn1 (single isomer, unassigned) [947 D1]",
    "Target entity": "human IDO1 (Homo sapiens)",
    "Endpoint label": "IC50",
    "Value": "< 50 nM"
  },
  {
    "Compound": "CCC(CC(=O)O)c1cc(Nc2ccc(Cl)cc2)c(N(CC)C2CCOCC2)cc1F (single isomer, unassigned) [Example 861]",
    "Target entity": "human IDO1 (Homo sapiens)",
    "Endpoint label": "IC50",
    "Value": "< 5 nM"
  },
  {
    "Compound": "CCN(c1ccc([C@@H](COC)CC(=O)O)cc1Nc1cccc(OC(F)(F)C(F)F)c1)C1CCOCC1 [Example 361]",
    "Target entity": "human IDO1 (Homo sapiens)",
    "Endpoint label": "IC50",
    "Value": "< 5 nM"
  },
  {
    "Compound": "C[C@@H]1CN(c2ccc(C(CC(=O)O)C3CC3)cc2NC(=O)Nc2ccc(Cl)cc2F)C[C@H](C)O1 (single isomer, unassigned) [Example 253]",
    "Target entity": "human IDO1 (Homo sapiens)",
    "Endpoint label": "IC50",
    "Value": "> 50 nM"
  }
]
